# System: Mucor indicus
# assay_remarks: Agar disc diffusion, strain J
# Assay type: cell-based
# Parameters: concentration or dose not given beside the values
Please note: label 1 applies when (inhibition %) is 50% or greater, and label 0 applies otherwise.

Please review the following examples before continuing.
Oc1ccccc1N=Cc1ccc(N2CCOCC2)cc1 [(HL), 2-(4-morpholinobenzylideneamino)phenol]	label 0
CC(=O)N1CCN(c2ccc(OCC3COC(Cn4ccnc4)(c4ccc(Cl)cc4Cl)O3)cc2)CC1 (centres unmarked) [Ketoconazole, reference compound]	label 1
[O-]c1ccccc1N=Cc1ccc(N2CCOCC2)cc1.[O-]c1ccccc1N=Cc1ccc(N2CCOCC2)cc1.[Zn+2].c1ccc(-c2ccccn2)nc1 [(2a), [Zn(L)2(bpy)]]	label 1

Lab note: next compound to report on.
Request: Has C[C@@H]1[C@H](O)[C@@H](C)/C=C/C=C/C=C/C=C/C=C/C=C/C=C/[C@H](O[C@@H]2O[C@H](C)[C@@H](O)[C@H](N)[C@@H]2O)C[C@@H]2O[C@](O)(C[C@@H](O)C[C@@H](O)[C@H](O)CC[C@@H](O)C[C@@H](O)CC(=O)O[C@H]1C)C[C@H](O)[C@H]2C(=O)O [Amphotericin B, reference compound] a recorded (inhibition %) greater than or equal to 50%?
Response: label 1
